- Test system: UACC-62 melanoma
- Measurement Notes: NCI tumour cell line growth inhibition, 48 h
Below is a list of entries, each paired with its recorded TGI value.

Ask | Quick one: TGI for "O=C(/C=C/c1ccco1)CC(=O)/C=C/c1ccco1" ?
Reply | > 31.6 µM

Ask | Look up TGI: "O=[N+]([O-])O.[Ga]"
Reply | > 10000 µM

Ask | Need TGI, item "CCN(CC)CCCNc1nc2ccccc2c2[nH]c3ccc(OC)cc3c12"
Reply | > 10 µM

Ask | Given the compound "COc1cccc(/C=C2\CCCCCC2=O)c1" , what is its reported TGI?
Reply | > 100 µM

Ask | What measured TGI goes with "COc1cc2nc(Nc3cccc(F)c3)nc(Nc3cc(C)[nH]n3)c2cc1OC" ?
Reply | 3.66 µM

Others:
Ask | Would you mind telling me what TGI value was observed for "N#CCCN(c1ccc(-c2nnc(NC(=O)CNNC(=O)CC(=O)Nc3ccccc3)s2)cc1)S(=O)(=O)c1ccccc1" ?
Reply | > 100 µM

Ask | Please look up its TGI: "Cc1cccc(-c2cc(=S)c3cc(N4CCCC4)ccc3[nH]2)c1"
Reply | > 100 µM

Ask | Form field: reported TGI of "CC1=C(C(=O)Nc2ccc(Cl)c(Cl)c2)C(c2ccco2)C(C(=O)Nc2ccc(Cl)c(Cl)c2)=C(C)N1"
Reply | 26 µM

* * *

- Test system: HCT-116 colon
- Measurement Notes: NCI tumour cell line growth inhibition, 48 h
Result Type: TGI

For orientation, consider the following solved cases.
Ask | Returns the measured TGI for the input compound. Input: Nc1ccn(C2CC(CO)C(O)C2O)c(=O)n1 (configuration not stated)
Reply | > 57.7 µM

Ask | What value of measured TGI is listed for "CCN(CC)CCCNc1nc2ccccc2c2[nH]c3ccc(OC)cc3c12" ?
Reply | 1.95 µM

Ask | What value of TGI has been reported for the following compound? "c1ccc(CN(Cn2cccn2)Cn2cccn2)nc1"
Reply | > 100 µM

Ask | Looking for the measured TGI of "COc1ccccc1Cn1nc(OC)c2cc([N+](=O)[O-])ccc21" , can you help?
Reply | > 100 µM

Ask | Param item = "NCCNC(=S)S" ; retrieve measured TGI.
Reply | > 100 µM

Ask | Entry "c1ccc2c(c1)Nc1nc3nonc3nc1N2" has what TGI?
Reply | > 100 µM

Ask | # get_value(readout='TGI', item= COc1cccc(N2C(=O)CSC2c2cc(OC)c(OC)c(OC)c2)c1 (configuration not stated) )
Reply | > 100 µM

Ask | Quick one: TGI of "O=[N+]([O-])O.[Ga]" ?
Reply | > 10000 µM

---
Ask | Look up TGI for this compound: "N#CCCN(CCC#N)c1ccc(/C=C2\N=C(c3ccccc3)N(c3ccccn3)C2=O)cc1"
Reply | > 100 µM

Ask | Request the reported TGI associated with "Cc1cccc(-c2cc(=S)c3cc(N4CCCC4)ccc3[nH]2)c1"
Reply | > 100 µM

Ask | Fill in: TGI of CC1OC(OCC2COC(O)(Oc3c(-c4ccc(O)c(O)c4)oc4cc(O)cc(O)c4c3=O)C(O)C2O)C(O)C(O)C1O (configuration not stated) is ___
Reply | > 100 µM

Ask | Query (compound): "Cn1c(-c2ccc(/C=N\N3CCN(/N=C/c4ccc(-c5c[n+]6ccsc6n5C)cc4)CC3)cc2)c[n+]2ccsc12" ; field requested: TGI
Reply | > 100 µM

* * *

GI50 by entry:
- Test system: 786-0 renal
- Measurement Notes: NCI tumour cell line growth inhibition, 48 h

Below are worked cases with known answers.
Ask | What value of GI50 has been reported for the following compound? "COc1cc2nc(Nc3cccc(F)c3)nc(Nc3cc(C)[nH]n3)c2cc1OC"
Reply | 1750 nM

Ask | For the compound "COC(=O)CCC/C=C\C[C@H]1C=CC(=O)/C1=C/C[C@@H](O)C/C=C\CC(F)(F)F" , what GI50 is on record?
Reply | 1850 nM

Ask | // GI50 lookup, key: "COc1cc(C(=O)c2cc3c(cc2C)OCO3)cc(OC)c1OC"
Reply | 322 nM

Ask | Please report the recorded GI50 for "Cc1ccc(C)c(-c2csc(Nc3ccc(C)c(C)c3)n2)c1" .
Reply | 39500 nM

Ask | Requested field: GI50. Item: CCC(C)C(NC(=O)C1CCCN1C(=O)C(NC(=O)C(C)N)C(C)C)C(N)=O (centres undefined)
Reply | > 100000 nM

// next entry
Ask | I'd like to know its GI50. The compound in question is "CCn1cnc2c(Nc3cccc(Cl)c3)nc(N[C@@H]3CCCC[C@@H]3N)nc21"
Reply | 1830 nM

* * *

- Tested on: COLO 205 colon
- Measurement Notes: NCI tumour cell line growth inhibition, 48 h
Consider the following molecules and their measured TGI readings.

Ask | Can you share its TGI? I mean this molecule: "COc1ccc(/C(C)=N/OC(=O)c2c(-c3ccccc3Cl)noc2C)cc1CN1CCOCC1"
Reply | 31.3 µM

Ask | Consider the molecule "CS(=O)(=O)Nc1ccc(Nc2c3ccccc3nc3ccccc23)cc1" and give its measured TGI.
Reply | 21 µM

Ask | Please look up its TGI: COc1ccc(N2C(=O)C3c4[nH]c5cccc(C)c5c4C4CCC(C(C)(C)C)CC4C3C2=O)cc1 (stereo unspecified)
Reply | > 10 µM

Ask | Endpoint output: TGI of "CCOC(=O)c1cn(Cc2ccccc2)c(=O)n1Cc1ccccc1" . Value?
Reply | > 100 µM

Ask | Entry "COC(=O)CCn1cnc2c(SC)ncnc21" : reported TGI = ?
Reply | > 100 µM

Ask | Please look up its TGI: "Nc1c(-c2ccc(Cl)cc2Cl)[n+]([O-])c2ccccc2[n+]1[O-]"
Reply | > 100 µM

Ask | # query: TGI of entry O=C1OC(O)C(Oc2ccc(Cl)cc2)=C1Cl (stereo unspecified)
Reply | > 100 µM

Ask | For "N/N=C1/CCCc2nonc21" , what is its reported TGI?
Reply | > 100 µM

***
Ask | Which TGI value belongs to "O=[N+]([O-])O.[Ga]" ?
Reply | > 9550 µM

Ask | // returns reported TGI for input Cc1ccc(Cl)c(NC(=O)C(=O)C(C(=O)c2ccncc2)C2OC(=O)c3ccccc32)c1 (stereo unspecified)
Reply | > 100 µM

Ask | Dear colleague, I am looking for the recorded TGI of the following molecule: "O=C(Cc1ccc(Cl)c(Cl)c1)N(CCc1ccc(Cl)c(Cl)c1)CCN1CCCC1"
Reply | 3.38 µM

Ask | Would you kindly share the measured TGI for "CCCCCCCC[N+](C)(CCCCCCCC)CCCCCCCC" ?
Reply | 0.361 µM

Ask | Given the entry CC(CO)C1=CC(C#CCOCc2ccccc2)N(C(=O)Oc2ccccc2)c2ccccc21 (stereo unspecified) , report its measured TGI.
Reply | 28.4 µM

Ask | Name the reported TGI value associated with the molecule "N#CCCN(CCC#N)c1ccc(/C=C2\N=C(c3ccccc3)N(c3ccccn3)C2=O)cc1"
Reply | > 100 µM

Ask | Return reported TGI; argument: COc1ccc2c(c1)CCC1C2CC[C@]2(C)/C(=N/OC(=O)Cc3ccccc3)CCC12 (stereo partly specified)
Reply | 58.6 µM

Ask | I would be grateful if you could share the reported TGI for N#CC(c1cc2c(cc1Br)OCO2)N1CCOCC1 (stereo unspecified) .
Reply | > 100 µM

Ask | // TGI lookup, key: "O=C1C=C(NCCc2cc(Br)c(O)c(Br)c2)C(=O)c2ncccc21"
Reply | 3.25 µM

Ask | Consider the molecule CCOC(=O)CCC(NC(=O)Cc1ccc(Oc2nc3ccccc3nc2-c2cccs2)cc1)C(=O)OCC (stereo unspecified) and give its measured TGI.
Reply | > 100 µM

Ask | Item "C[C@@H]1C=C2C(=O)O[C@@H]3CC[C@H](C1)[C@]23O" has what recorded TGI?
Reply | 15.7 µM

Ask | Need TGI of "CCOC(=O)c1sc(=S)c2c(C(=O)OCC)c(C(=O)OCC)sc2c1C(=O)OCC" , thanks.
Reply | > 100 µM

Ask | For the molecule "C=C(C)[C@@H]1CC[C@]2(C)[C@H](CC[C@@H]3[C@H]4[C@H]5OC[C@@]4(CCC5(C)C)CC[C@]32C)[C@@]1(C)CCCN" , what TGI is on record?
Reply | 4.65 µM

* * *

- System: SF-268 CNS
- Measurement Notes: NCI tumour cell line growth inhibition, 48 h; in the data active means GI50 below about 0.43 µM; inactive means the rest
Respond using exactly one of the listed classes: True for active, False for inactive

Ask | Per the records of this test, what outcome belongs to "C=C1C(=O)O[C@H]2[C@H]1CC/C(COC(=O)NCc1c[nH]c3ccc(Cl)cc13)=C\CC[C@@]1(C)O[C@@H]21" ?
Reply | False

Next:
Ask | What call does the record list for "CSc1nc2sc3cc(Cl)ccc3n2c(=N)c1C#N" ?
Reply | False

Ask | // return assay outcome for "COc1cc2c3c(n(CCCNCCCNCCCn4c5c(c6ccccc6c4=O)C(=O)c4ccccc4-5)c(=O)c2cc1OC)-c1cc2c(cc1C3=O)OCO2"
Reply | True

Ask | Lab log entry: "COc1ccc2c(c1)CC[C@@H]1[C@@H]2CC[C@]2(C)C(c3ccco3)=C(C=O)C[C@@H]12" — outcome as called in the assay?
Reply | False
